tested on: Talaromyces marneffei; experiment: Antifungal activity against Talaromyces marneffei assessed as growth inhibition after 3 to 4 days by serial plate dilution method; format: functional
Listing of recorded MIC by entry.
# number only, unit µg/mL dropped from output

Qu. Tell me the measured MIC of Cc1[nH]c2ccc(OC(F)(F)F)cc2c1CCCNC(=O)CCc1c[nH]c2ccc(Cl)cc12 , please.
Ans. 6.25

Qu. Tell me the measured MIC of Cc1[nH]c2ccc(OC(F)(F)F)cc2c1CNC(=O)CCc1c[nH]c2ccc(Cl)cc12 , please.
Ans. 6.25

Qu. Tell me the measured MIC of O=C(CCc1c[nH]c2ccc(Cl)cc12)NCCCc1c[nH]c2ccc(Cl)cc12 , please.
Ans. 6.25
